All figures here come from paper PMC5381194.

# FPD (ratio) per entry
System: human embryonic stem cell-derived cardiomyocyte cluster (hES-CMC)
Assay: On-chip MEA field potential recording of hCM clusters (temporal FPD and STVFPD)
Details: hCM clusters; 10 μM (Ref. dose ca. 10^2 × CMAX); ratio against the control; mean ± S.E.
// return numeric value only (unit: ratio, not printed)

Fc1ccc([C@@H]2CCNC[C@H]2COc2ccc3c(c2)OCO3)cc1: 1.30

Q. // lookup FPD (ratio) | system=human embryonic stem cell-derived cardiomyocyte cluster (hES-CMC) | key= COc1cc(N)c(Cl)cc1C(=O)NC1CCN(CCCOc2ccc(F)cc2)CC1OC (stereo not shown) [Cisapride]
A. 1.37

Q. // lookup FPD (ratio) | system=human embryonic stem cell-derived cardiomyocyte cluster (hES-CMC) | key= CN(C)CCCC1(c2ccc(F)cc2)OCc2cc(C#N)ccc21 (stereo not shown)
A. 0.86

Q. // lookup FPD (ratio) | system=human embryonic stem cell-derived cardiomyocyte cluster (hES-CMC) | key= CC(C)COCC(CN(Cc1ccccc1)c1ccccc1)N1CCCC1 (stereo not shown)
A. 1.21

----------
# Arrest (%) per entry
Tested on: human embryonic stem cell-derived cardiomyocyte cluster (hES-CMC)
Conditions: human, 10 min, 10 µM
// return numeric value only (unit: %, not printed)

Worked examples, 5 compounds total:
CN(C)CCCC1(c2ccc(F)cc2)OCc2cc(C#N)ccc21 (stereo not drawn): 12
CSc1ccc2c(c1)N(CCC1CCCCN1C)c1ccccc1S2 (stereo not drawn): 0
CC(C)COCC(CN(Cc1ccccc1)c1ccccc1)N1CCCC1 (stereo not drawn): 5
NC(N)=Nc1nc(CSCCC(N)=NS(N)(=O)=O)cs1: 0
COc1cc(N)c(Cl)cc1C(=O)NC1CCN(CCCOc2ccc(F)cc2)CC1OC (stereo not drawn) [Cisapride]: 0

Q. Look at this compound and give its reported Arrest (%). CC(C)(C)c1ccc(C(O)CCCN2CCC(C(O)(c3ccccc3)c3ccccc3)CC2)cc1 (stereo not drawn)
A. 21

----------
Test system: human embryonic stem cell-derived cardiomyocyte cluster (hES-CMC)
Assay: On-chip MEA field potential recording of hCM clusters (temporal FPD and STVFPD)
Details: more than 1.9-fold of STVFPD is the border of high risk of VT/TdP
value-kind: Score (On-chip MEA system, VT/TdP risk)

CC(C)(C)c1ccc(C(O)CCCN2CCC(C(O)(c3ccccc3)c3ccccc3)CC2)cc1 (stereo not drawn): High
Fc1ccc([C@@H]2CCNC[C@H]2COc2ccc3c(c2)OCO3)cc1: High
CC(C)COCC(CN(Cc1ccccc1)c1ccccc1)N1CCCC1 (stereo not drawn): High

----------
Target: hERG (Homo sapiens)
Experiment: in vitro
Conditions: pH 7.4
value-kind: inhibition at 10 µM (%)
// return numeric value only (unit: %, not printed)

Q. // lookup inhibition at 10 µM | system=hERG (Homo sapiens) | key= CN(C)CCCC1(c2ccc(F)cc2)OCc2cc(C#N)ccc21 (stereo not shown) [Citalopram]
A. 83.5

----------
Tested on: human embryonic stem cell-derived cardiomyocyte cluster (hES-CMC)
Test: On-chip MEA field potential recording of hCM clusters (temporal FPD and STVFPD)
Conditions: more than 1.9-fold of STVFPD is the border of high risk of VT/TdP
value-kind: Score (On-chip MEA system, VT/TdP risk)

Worked examples, 5 compounds total:
CN(C)CCCC1(c2ccc(F)cc2)OCc2cc(C#N)ccc21 (stereo not drawn): High
CC(C)(C)c1ccc(C(=O)CCCN2CCC(OC(c3ccccc3)c3ccccc3)CC2)cc1: Low
O=C(NCC1CCCCN1)c1cc(OCC(F)(F)F)ccc1OCC(F)(F)F (stereo not drawn) [Flecainide]: High
NC(N)=Nc1nc(CSCCC(N)=NS(N)(=O)=O)cs1: Low
COc1cc(N)c(Cl)cc1C(=O)NC1CCN(CCCOc2ccc(F)cc2)CC1OC (stereo not drawn) [Cisapride]: High

Q. Look at this compound and give its reported Score (On-chip MEA system, VT/TdP risk). C[C@H]1COc2c(N3CCN(C)CC3)c(F)cc3c(=O)c(C(=O)O)cn1c23
A. Low

Q. Look at this compound and give its reported Score (On-chip MEA system, VT/TdP risk). COc1ccc(CCN2CCC(Nc3nc4ccccc4n3Cc3ccc(F)cc3)CC2)cc1
A. High

Q. Look at this compound and give its reported Score (On-chip MEA system, VT/TdP risk). CSc1ccc2c(c1)N(CCC1CCCCN1C)c1ccccc1S2 (stereo not drawn)
A. High

Q. Look at this compound and give its reported Score (On-chip MEA system, VT/TdP risk). COc1ccc([C@@H]2Sc3ccccc3N(CCN(C)C)C(=O)[C@@H]2OC(C)=O)cc1
A. Low

----------
Test system: human embryonic stem cell-derived cardiomyocyte cluster (hES-CMC)
Test: On-chip MEA field potential recording of hCM clusters (temporal FPD and STVFPD)
Conditions: hCM clusters; 10 μM (Ref. dose ca. 10^2 × CMAX); ratio against the control; mean ± S.E.
value-kind: STVFPD (ratio)
// return numeric value only (unit: ratio, not printed)

CC(C)COCC(CN(Cc1ccccc1)c1ccccc1)N1CCCC1 (stereo not shown): 4.74
COc1cc(N)c(Cl)cc1C(=O)NC1CCN(CCCOc2ccc(F)cc2)CC1OC (stereo not shown) [Cisapride]: 3.82
Fc1ccc([C@@H]2CCNC[C@H]2COc2ccc3c(c2)OCO3)cc1: 2.27

Q. Look at this compound and give its reported STVFPD (ratio). CN(C)CCCC1(c2ccc(F)cc2)OCc2cc(C#N)ccc21 (stereo not shown)
A. 2.75

----------
# Fib-like (%) per entry
Tested on: human embryonic stem cell-derived cardiomyocyte cluster (hES-CMC)
Conditions: human, 10 min, 10 µM
// return numeric value only (unit: %, not printed)

Worked examples, 4 molecules total:
CC(C)COCC(CN(Cc1ccccc1)c1ccccc1)N1CCCC1 (stereo not drawn) [Bepridil]: 5
NC(N)=Nc1nc(CSCCC(N)=NS(N)(=O)=O)cs1 [Famotidine]: 0
COc1cc(N)c(Cl)cc1C(=O)NC1CCN(CCCOc2ccc(F)cc2)CC1OC (stereo not drawn) [Cisapride]: 4
CSc1ccc2c(c1)N(CCC1CCCCN1C)c1ccccc1S2 (stereo not drawn) [Thioridazine]: 0

Q. // lookup Fib-like (%) | system=human embryonic stem cell-derived cardiomyocyte cluster (hES-CMC) | key= CC(C)(C)c1ccc(C(O)CCCN2CCC(C(O)(c3ccccc3)c3ccccc3)CC2)cc1 (stereo not drawn) [Terfenadine]
A. 3

Q. // lookup Fib-like (%) | system=human embryonic stem cell-derived cardiomyocyte cluster (hES-CMC) | key= CN(C)CCCC1(c2ccc(F)cc2)OCc2cc(C#N)ccc21 (stereo not drawn) [Citalopram]
A. 0

----------
Molecular target: hERG (Homo sapiens, UniProt Q12809)
Sequence (Q12809 whole entry): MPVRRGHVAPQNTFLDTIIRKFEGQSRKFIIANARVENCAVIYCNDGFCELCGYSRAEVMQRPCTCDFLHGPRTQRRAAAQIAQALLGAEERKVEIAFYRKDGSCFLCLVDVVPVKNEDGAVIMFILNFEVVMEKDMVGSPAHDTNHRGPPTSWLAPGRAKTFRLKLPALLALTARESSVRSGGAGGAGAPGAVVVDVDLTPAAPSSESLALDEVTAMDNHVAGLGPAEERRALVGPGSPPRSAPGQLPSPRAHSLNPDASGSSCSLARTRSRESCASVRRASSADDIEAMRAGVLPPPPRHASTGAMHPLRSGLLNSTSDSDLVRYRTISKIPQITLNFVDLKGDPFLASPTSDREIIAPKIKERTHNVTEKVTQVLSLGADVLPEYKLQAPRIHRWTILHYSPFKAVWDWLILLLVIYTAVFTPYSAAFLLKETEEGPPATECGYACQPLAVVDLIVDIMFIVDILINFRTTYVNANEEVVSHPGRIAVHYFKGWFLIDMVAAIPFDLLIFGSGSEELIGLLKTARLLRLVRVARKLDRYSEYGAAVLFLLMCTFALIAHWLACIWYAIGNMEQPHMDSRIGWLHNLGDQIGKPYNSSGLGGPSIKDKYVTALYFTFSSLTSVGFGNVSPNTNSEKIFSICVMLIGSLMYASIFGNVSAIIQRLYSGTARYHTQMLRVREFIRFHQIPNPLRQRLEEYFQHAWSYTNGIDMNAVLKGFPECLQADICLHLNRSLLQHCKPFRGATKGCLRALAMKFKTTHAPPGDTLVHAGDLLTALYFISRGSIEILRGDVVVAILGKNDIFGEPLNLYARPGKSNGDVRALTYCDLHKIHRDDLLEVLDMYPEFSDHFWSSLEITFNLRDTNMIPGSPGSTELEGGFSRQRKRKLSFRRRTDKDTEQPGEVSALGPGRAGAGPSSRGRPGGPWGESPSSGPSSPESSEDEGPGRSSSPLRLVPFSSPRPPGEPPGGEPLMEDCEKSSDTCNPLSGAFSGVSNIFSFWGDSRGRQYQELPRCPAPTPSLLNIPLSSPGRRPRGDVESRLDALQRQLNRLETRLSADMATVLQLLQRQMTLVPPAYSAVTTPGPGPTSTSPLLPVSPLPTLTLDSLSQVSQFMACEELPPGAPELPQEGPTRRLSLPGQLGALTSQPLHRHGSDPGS
Experiment: hERG assay: K+ current by patch clamp in hERG expressing CHO-K1 cells
Conditions: CHO-K1 cells expressing hERG, pH 7.4
value-kind: inhibition at 5 min, 0.3 µM (%)
// return numeric value only (unit: %, not printed)

Q. Look at this compound and give its reported inhibition at 5 min, 0.3 µM. CC(C)COCC(CN(Cc1ccccc1)c1ccccc1)N1CCCC1 (stereo not shown)
A. 61.9

----------
Target: hERG (Homo sapiens, UniProt Q12809)
Assay: hERG assay: K+ current by patch clamp in hERG expressing CHO-K1 cells
Details: CHO-K1 cells expressing hERG, pH 7.4
value-kind: inhibition at 5 min, 300 µM
Answer with the figure and its unit, nothing else.

Q. Look at this compound and give its reported inhibition at 5 min, 300 µM. C[C@H]1COc2c(N3CCN(C)CC3)c(F)cc3c(=O)c(C(=O)O)cn1c23
A. 13.2%
